# run-description: inhibitors of DENV2 cytopathic effect, primary screen, cell-based, plate reader, single concentration (AID 651640);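 note: 0% = median of neutral control wells and 100% = median of positive control wells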
# settings: DENV2-infected cells, cytopathic effect rescue, at 9.99 µM, active compounds read high
About 6,000 (1.7%) of roughly 350,000 compounds were called active. Another 5% or so got no clear call; they are omitted. What follows is part of a selection rich in actives, with near analogues and random picks from the rest.
experimental-endpoint: CPE inhibition (%)

INSERT INTO results (smiles_str, experimental_endpoint, readout_value) VALUES
  ('CN(C)C(=O)c1ccc(-c2ccc([C@@H]3[C@@H](CO)N4CCCCN(Cc5cncnc5)C[C@@H]34)cc2)cc1', 'CPE inhibition', 5.96),
  ('OC[C@H]1[C@H](c2ccc(-c3cccnc3)cc2)[C@H]2CN(Cc3ccccn3)CCCCN21', 'CPE inhibition', 3.13),
  ('OC[C@H]1[C@@H](c2ccc(/C=C/c3ccccc3)cc2)[C@H]2CN(Cc3cccnc3)CCCCN21', 'CPE inhibition', 23.8),
  ('OC[C@H]1[C@H](c2ccc(-c3cccc(F)c3)cc2)[C@@H]2CN(Cc3cncnc3)CCCCN12', 'CPE inhibition', 58.8);
